Assay Text: 7-day mouse toxicology study: toxicokinetics (plasma, brain, CSF), 30 mg/kg/day PO
Assay type: in vivo, male C57BL/6 mice
Assay Conditions: male, C57BL/6, mouse, CSF, po, 30 mg/kg, Day 7, CSF, 30 mg/kg PO
Observable: Tmax (h)
Numbers only, in h.

Lookup: Which Tmax reading was recorded for the compound Cc1cccnc1[C@@H]1CCC[C@H](c2nc3cccc(N4CCN(C)CC4)c3[nH]2)N1C (racemic) [I-3] ?
Found: 4

----------
Assayed System: CXCR-4 transfected U87 cell line (U87.CXCR4) (Homo sapiens)
Sequence (P61073 whole entry): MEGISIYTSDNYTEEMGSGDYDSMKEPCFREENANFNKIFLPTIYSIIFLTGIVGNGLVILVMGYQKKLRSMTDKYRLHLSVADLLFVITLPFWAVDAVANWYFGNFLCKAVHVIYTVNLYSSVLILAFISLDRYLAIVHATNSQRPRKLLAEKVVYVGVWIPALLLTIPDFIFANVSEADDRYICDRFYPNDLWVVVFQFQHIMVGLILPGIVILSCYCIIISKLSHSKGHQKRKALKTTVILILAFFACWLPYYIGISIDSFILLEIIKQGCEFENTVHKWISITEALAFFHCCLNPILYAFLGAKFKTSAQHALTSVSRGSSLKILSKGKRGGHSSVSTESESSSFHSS
Assay Text: Intracellular CXCL-12-induced calcium mobilization assay (FLIPR)
Assay Conditions: U87.CXCR4 cells; CXCL-12 25-50 ng/mL; compound added 15 min before; read-out: IC50 CXCL-12 Ca^2+ flux U87.CXCR4+
Observable: IC50

Worked examples follow.
Lookup: Which IC50 reading was recorded for the compound CCc1cccnc1[C@@H]1CCC[C@H](c2nc3cccc(N4CCN(C)CC4)c3[nH]2)N1C [I-114] ?
Found: 0.01 to 100 nM

Lookup: Here is the next compound: Cc1cccnc1[C@@H]1CCC[C@H](c2nc3c(N4CCN(C)CC4)cccc3n2C)N1 [I-141]
Found: ≥ 1000 nM

Lookup: Here is the next compound: CN1CCN(c2cccc3nc([C@H]4CCC[C@@H](c5ncccc5Cl)N4)n(C)c23)CC1 [I-124]
Found: 0.01 to 100 nM

Lookup: Here is the next compound: CN1CCN(c2cccc3nc([C@H]4CCC[C@@H](c5ncccc5Br)N4C)[nH]c23)CC1 [I-28]
Found: 100 to 1000 nM

For each of the items listed, what is its IC50?
1. Cc1ccnc([C@@H]2CCC[C@H](c3nc4cccc(N5CCN(C)CC5)c4[nH]3)N2C)c1 [I-71]
2. Cc1cccnc1[C@@H]1CCC[C@H](c2nc3ccccc3n2CC2CCCN(C)C2)N1C (some centres unmarked) [I-13]
3. Cc1ccnc([C@@H]2CCC[C@H](c3nc4cccc(N5CCN(C)CC5)c4[nH]3)N2C)c1Cl [I-116]

Found:
1. ≥ 1000 nM
2. 0.01 to 100 nM
3. 100 to 1000 nM

Lookup: Which IC50 reading was recorded for the compound CN1CCN(c2cccc3nc([C@H]4CCC[C@@H](c5ncccc5C(F)(F)F)N4C)[nH]c23)CC1 (relative stereo) [I-58] ?
Found: ≥ 1000 nM
